The origin of these recorded values is patent US20220195063A1.

# testedOn: T1, human SIRPα1 (huSIRPα1), protein antigen (human, UniProt P78324 31-370, limits assumed, biotinylated in the SPR assay)
# T1 construct: Coated on the plate in ELISA, biotinylated and captured in SPR; also called v2
# methodSummary: SPR, biotinylated antigen captured, 25 C
readoutKind: pKd
Quick note: pKd values are minus log10 of concentrations in mol/L.

Give the measured pKd of anti-SIRPα antibody 12 humanized (antibody, human IgG1, kappa, L234A L235A, V domains shown, Humanized, human IgG1 LALA / kappa) VH: VQLVESGGRLVQPGTPLTLSCTVSGFSLSSYVMGWFRQAPGKGLEYIGIISSSGSPYYASWVNGRFTISKTSTTMDLKMNSLRSEDTATYFCARVGPLGVDYFNIWGPGTLVTVSS VL: DIVMTQTPSSVEAAVGGTVTIKCQAGQSINSYLAWYQQKPGQRPKLLIYYASTLESGVPSRFKGSGSGTDYTLTISDLESADAATYYCQSWHYISRSYAFGGGTEVVVKR .
10.23

Give the measured pKd of anti-SIRPα antibody 4 (antibody, human IgG1, kappa, L234A L235A, V domains shown, Chimeric: rabbit variable regions on human IgG1 LALA / kappa; also called chimeric antibody 4) VH: QSVEESGGRLGTPGTPLTLTCTVSGFSLSSYVMGWFRQAPGKGLEYIGIISSSGSPYYASWVNGRFTISKTSTTMDLKMNSPTTEDTATYFCARVGPLGVDYFNIWGPGTLVTVSL VL: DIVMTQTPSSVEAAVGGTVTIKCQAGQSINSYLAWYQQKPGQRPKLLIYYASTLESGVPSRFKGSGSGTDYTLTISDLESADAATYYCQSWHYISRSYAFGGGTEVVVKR .
10.59
